System: PC-3 [JPC-3]
Assay: relative viability (nuclei count vs DMSO), 5 days (fraction); higher = more cells survive
Settings: first compound 0.002 µM
MEASUREMENT_NAME: relative viability

INSERT INTO measurements (compound, measured_number) VALUES
  ('CC(=O)O[C@@]12CO[C@@H]1C[C@H](O)[C@@]1(C)C(=O)[C@H](O)C3=C(C)[C@@H](OC(=O)[C@H](O)[C@@H](NC(=O)OC(C)(C)C)c4ccccc4)C[C@@](O)([C@@H](OC(=O)c4ccccc4)[C@H]21)C3(C)C [Docetaxel] + C[C@]1(O)C[C@@H](c2nc(-c3ccc4ccc(-c5ccccc5)nc4c3)c3c(N)nccn32)C1 [Linsitinib] (partner 1 µM)', 0.863),
  ('CC(=O)O[C@@]12CO[C@@H]1C[C@H](O)[C@@]1(C)C(=O)[C@H](O)C3=C(C)[C@@H](OC(=O)[C@H](O)[C@@H](NC(=O)OC(C)(C)C)c4ccccc4)C[C@@](O)([C@@H](OC(=O)c4ccccc4)[C@H]21)C3(C)C [Docetaxel] + Nc1nc2[nH]cc(CCc3ccc(C(=O)N[C@@H](CCC(=O)O)C(=O)O)cc3)c2c(=O)[nH]1 [Pemetrexed] (partner 0.2 µM)', 0.513),
  ('CC(=O)O[C@@]12CO[C@@H]1C[C@H](O)[C@@]1(C)C(=O)[C@H](O)C3=C(C)[C@@H](OC(=O)[C@H](O)[C@@H](NC(=O)OC(C)(C)C)c4ccccc4)C[C@@](O)([C@@H](OC(=O)c4ccccc4)[C@H]21)C3(C)C [Docetaxel] + CC(C)C[C@H](NC(=O)[C@H](Cc1ccccc1)NC(=O)c1cnccn1)B(O)O [Bortezomib] (partner 0.002 µM)', 0.735);

----------
Tested on: LOU-NH91
Assay: relative viability (nuclei count vs DMSO), 5 days (fraction); higher = more cells survive
Settings: first compound 0.05 µM
MEASUREMENT_NAME: relative viability

INSERT INTO assay_data (compound, result) VALUES
  ('COc1cc2nccc(Oc3ccc(NC(=O)Nc4cc(C)on4)c(Cl)c3)c2cc1OC [Tivozanib] + CC(=O)c1c(C)c2cnc(Nc3ccc(N4CCNCC4)cn3)nc2n(C2CCCC2)c1=O [Palbociclib] (partner 0.5 µM)', 0.513),
  ('Nc1ccn([C@@H]2O[C@H](CO)[C@@H](O)[C@@H]2O)c(=O)n1 [Cytarabine] + C[C@]1(O)C[C@@H](c2nc(-c3ccc4ccc(-c5ccccc5)nc4c3)c3c(N)nccn32)C1 [Linsitinib] (partner 1 µM)', 0.82),
  ('Nc1ccn([C@@H]2O[C@H](CO)[C@@H](O)[C@@H]2O)c(=O)n1 [Cytarabine] + O=C(CCCCCCC(=O)Nc1ccccc1)NO [Vorinostat] (partner 1 µM)', 0.806),
  ('Nc1ccn([C@@H]2O[C@H](CO)[C@@H](O)[C@@H]2O)c(=O)n1 [Cytarabine] + Nc1nc2[nH]cc(CCc3ccc(C(=O)N[C@@H](CCC(=O)O)C(=O)O)cc3)c2c(=O)[nH]1 [Pemetrexed] (partner 0.2 µM)', 0.379),
  ('Nc1ccn([C@@H]2O[C@H](CO)[C@@H](O)[C@@H]2O)c(=O)n1 [Cytarabine] + CCNC(=O)c1noc(-c2cc(C(C)C)c(O)cc2O)c1-c1ccc(CN2CCOCC2)cc1 [Luminespib] (partner 0.01 µM)', 0.321);
